Ref: the supplement of paper PMC11208160

METHOD SUMMARY: recombinant UMI read abundance after kanamycin selection (control-corrected) (log10(CPM+1)); higher = more efficient recombination; extreme values may be limits of the assay; sequences stand for … in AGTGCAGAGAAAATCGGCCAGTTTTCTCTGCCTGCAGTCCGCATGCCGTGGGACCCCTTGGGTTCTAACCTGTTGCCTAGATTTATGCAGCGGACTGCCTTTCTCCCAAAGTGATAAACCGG…AGGTTGGTTTCACT; site = the 11-nt donor;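 also: IS621 bridge recombinase in Escherichia coli cells against a fixed T5 target plasmid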
Listing of recorded recombinant UMI read abundance (log10) by entry.
Note: the reply should be a number with no unit written.

SEQUENCE INPUT: TTAAGTCCATGGACCGGTTTTCCCGGTAATCCGTATTTGTA (site TAAAGTCCTTA)
recombinant UMI read abundance (log10): 0.00903
//
SEQUENCE INPUT: CACTGCCCATGGACCGGTTTTCCCGGTAATCCGTATTTGTT (site CACTGCCCTAA)
recombinant UMI read abundance (log10): 0.276
//
SEQUENCE INPUT: TCGAATACATGGACCGGTTTTCCCGGTAATCCGTATTTGCA (site TCGAATACTTG)
recombinant UMI read abundance (log10): 0
//
SEQUENCE INPUT: GGGACATCATGGACCGGTTTTCCCGGTAATCCGTATTTGCT (site AGGACATCTAG)
recombinant UMI read abundance (log10): 0
//
SEQUENCE INPUT: TGGAAGACATGGACCGGTTTTCCCGGTAATCCGTATTTGTA (site TGGAAGACTTA)
recombinant UMI read abundance (log10): 2.36
//
SEQUENCE INPUT: AATGTGTCATGGACCGGTTTTCCCGGTAATCCGTATTTGTC (site AATGTGTCTGG)
recombinant UMI read abundance (log10): 1.29
//
SEQUENCE INPUT: GTATTACCATGGACCGGTTTTCCCGGTAATCCGTATTTGCA (site GTATTACCTTG)
recombinant UMI read abundance (log10): 0
//
SEQUENCE INPUT: TAGCTAACATGGACCGGTTTTCCCGGTAATCCGTATTTGAA (site TAGCTAGCTTT)
recombinant UMI read abundance (log10): 0.00737

Inquiry: # return recorded recombinant UMI read abundance (log10) for entry CCCTAGTCATGGACCGGTTTTCCCGGTAATCCGTATTTGCC (site CCCTAGGCTGG)
Reply text: 0

Inquiry: # return recorded recombinant UMI read abundance (log10) for entry CGACAATCATGGACCGGTTTTCCCGGTAATCCGTATTTGCT (site CGACAATCTAG)
Reply text: 2.77

Inquiry: # return recorded recombinant UMI read abundance (log10) for entry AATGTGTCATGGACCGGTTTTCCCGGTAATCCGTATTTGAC (site AAGGTGTCTGT)
Reply text: 1.02

Inquiry: # return recorded recombinant UMI read abundance (log10) for entry GATGTGTCATGGACCGGTTTTCCCGGTAATCCGTATTTGAC (site CATGTGTCTGT)
Reply text: 0.736

Inquiry: # return recorded recombinant UMI read abundance (log10) for entry TCGGGTGCATGGACCGGTTTTCCCGGTAATCCGTATTTGGA (site TCGGGTGCTTC)
Reply text: 0.157

====

METHOD SUMMARY: recombinant UMI read abundance after kanamycin selection (control-corrected) (log10(CPM+1)); higher = more efficient recombination; extreme values may be limits of the assay; sequences stand for … in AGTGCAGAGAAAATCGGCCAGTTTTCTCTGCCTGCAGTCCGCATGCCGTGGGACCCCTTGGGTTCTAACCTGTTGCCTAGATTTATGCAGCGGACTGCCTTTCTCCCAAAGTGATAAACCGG…AGGTTGGTTTCACT; site = the 11-nt donor
Record Yes whenever recombinant UMI read abundance (log10) is at 0.004 or higher; record No when lower.

SEQUENCE INPUT: GACATACCATGGACCGGTTTTCCCGGTAATCCGTATTTGGC (site GACATACCTGC)
LABEL VALUE: No

Inquiry: State whether the measured recombinant UMI read abundance (log10) reaches 0.004, counting equality as reaching it, for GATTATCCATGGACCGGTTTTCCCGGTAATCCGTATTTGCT (site GATTACCCTAG)
Reply text: No

Inquiry: State whether the measured recombinant UMI read abundance (log10) reaches 0.004, counting equality as reaching it, for TAGGTAGCATGGACCGGTTTTCCCGGTAATCCGTATTTGAA (site TAGTTAGCTTT)
Reply text: Yes

Inquiry: State whether the measured recombinant UMI read abundance (log10) reaches 0.004, counting equality as reaching it, for CCAGTACCATGGACCGGTTTTCCCGGTAATCCGTATTTGCA (site CCAGTACCTTG)
Reply text: No

Inquiry: State whether the measured recombinant UMI read abundance (log10) reaches 0.004, counting equality as reaching it, for AAGGGTCCATGGACCGGTTTTCCCGGTAATCCGTATTTGAT (site AAGGGTCCTAT)
Reply text: Yes

Inquiry: State whether the measured recombinant UMI read abundance (log10) reaches 0.004, counting equality as reaching it, for CAATGCTCATGGACCGGTTTTCCCGGTAATCCGTATTTGCA (site CAATGCTCTTT)
Reply text: Yes

Inquiry: State whether the measured recombinant UMI read abundance (log10) reaches 0.004, counting equality as reaching it, for CCCGTATCATGGACCGGTTTTCCCGGTAATCCGTATTTGTC (site CCCATATCTGA)
Reply text: Yes

Inquiry: State whether the measured recombinant UMI read abundance (log10) reaches 0.004, counting equality as reaching it, for CTGCTATCATGGACCGGTTTTCCCGGTAATCCGTATTTGCT (site CTGCTACCTAG)
Reply text: No

====

Listing of recorded recombinant UMI read abundance (log10) by entry.
METHOD SUMMARY: recombinant UMI read abundance after kanamycin selection (control-corrected) (log10(CPM+1)); higher = more efficient recombination; extreme values may be limits of the assay; sequences stand for … in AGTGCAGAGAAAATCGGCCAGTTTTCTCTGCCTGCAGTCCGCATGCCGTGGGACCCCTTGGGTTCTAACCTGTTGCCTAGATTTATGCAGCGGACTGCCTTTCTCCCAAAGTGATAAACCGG…AGGTTGGTTTCACT; site = the 11-nt donor

SEQUENCE INPUT: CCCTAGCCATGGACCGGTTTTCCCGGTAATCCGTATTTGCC (site CCCTAGCCTTG)
OBSERVED VALUE: 0.00543
//
SEQUENCE INPUT: CCCTACCCATGGACCGGTTTTCCCGGTAATCCGTATTTGCC (site CCCTAGCCTGG)
OBSERVED VALUE: 0

Inquiry: # return recorded recombinant UMI read abundance (log10) for entry CAAGTCACATGGACCGGTTTTCCCGGTAATCCGTATTTGCG (site CAAGTCACTCT)
Reply text: 1.63

Inquiry: # return recorded recombinant UMI read abundance (log10) for entry ATGCCGACATGGACCGGTTTTCCCGGTAATCCGTATTTGCA (site ATGCCGACTTG)
Reply text: 1.91

Inquiry: # return recorded recombinant UMI read abundance (log10) for entry CCCGGTGCATGGACCGGTTTTCCCGGTAATCCGTATTTGCA (site CCCGGTGCTTG)
Reply text: 0

====

METHOD SUMMARY: recombinant UMI read abundance after kanamycin selection (control-corrected) (log10(CPM+1)); higher = more efficient recombination; extreme values may be limits of the assay; sequences stand for … in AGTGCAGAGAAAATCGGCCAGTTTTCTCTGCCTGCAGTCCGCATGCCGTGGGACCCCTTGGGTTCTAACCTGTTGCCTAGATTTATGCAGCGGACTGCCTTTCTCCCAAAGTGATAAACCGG…AGGTTGGTTTCACT; site = the 11-nt donor
Record Satisfied whenever recombinant UMI read abundance (log10) is at 0.01 or higher; record Not satisfied when lower.

Known results for sequences:
SEQUENCE INPUT: CTTATCTCATGGACCGGTTTTCCCGGTAATCCGTATTTGTA (site CTTTTCTCTTA)
LABEL VALUE: Not satisfied
//
SEQUENCE INPUT: CCGTTAGCATGGACCGGTTTTCCCGGTAATCCGTATTTGGG (site CCGTTAGCTCG)
LABEL VALUE: Not satisfied

Inquiry: State whether the measured recombinant UMI read abundance (log10) reaches 0.01, counting equality as reaching it, for CGTGTAACATGGACCGGTTTTCCCGGTAATCCGTATTTGTT (site CGTGAAACTAA)
Reply text: Not satisfied

Inquiry: State whether the measured recombinant UMI read abundance (log10) reaches 0.01, counting equality as reaching it, for GAATCCGCATGGACCGGTTTTCCCGGTAATCCGTATTTGTC (site GAATCCGCTGA)
Reply text: Satisfied

Inquiry: State whether the measured recombinant UMI read abundance (log10) reaches 0.01, counting equality as reaching it, for CGATCGTCATGGACCGGTTTTCCCGGTAATCCGTATTTGAT (site CGATCGTCTAT)
Reply text: Satisfied

Inquiry: State whether the measured recombinant UMI read abundance (log10) reaches 0.01, counting equality as reaching it, for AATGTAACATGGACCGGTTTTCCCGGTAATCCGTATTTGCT (site AACGTAACTAG)
Reply text: Satisfied
